Tested target: recombinant human-MT1 receptor (Homo sapiens, UniProt P48039)
Construct: expressed in transfected cells; host or cells: unnamed cell line stably overexpressing human MT1, co-expressing mitochondrial apoaequorin and Gα16
Sequence (P48039 whole entry): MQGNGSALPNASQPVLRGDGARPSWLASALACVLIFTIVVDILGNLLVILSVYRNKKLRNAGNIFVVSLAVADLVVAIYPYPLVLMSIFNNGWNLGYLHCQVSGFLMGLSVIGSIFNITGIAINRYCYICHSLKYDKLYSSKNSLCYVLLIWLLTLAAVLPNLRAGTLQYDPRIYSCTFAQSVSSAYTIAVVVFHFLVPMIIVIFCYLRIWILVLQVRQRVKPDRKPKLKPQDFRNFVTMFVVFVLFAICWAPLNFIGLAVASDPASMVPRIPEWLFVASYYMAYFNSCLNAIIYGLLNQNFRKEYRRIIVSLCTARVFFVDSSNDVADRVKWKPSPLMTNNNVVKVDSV
Assay text: In vitro MT1 screening, agonist activity (AequoScreen aequorin luminescence)
Type: cell-based
Test context: 1 nM compound; percentage of activity relative to the reference agonist at the EC100 concentration; read-out: Agonism percentages of MT1, 1 nM

{"columns": ["Compound", "activation at 0.001 µM (%)"],
 "data": [
  ["CCC(=O)NCCc1c[nH]c2cc(F)c3c(c12)CC(C)O3 (stereo not drawn) [Compound 23]", 39.1],
  ["CCC(=O)NCC(C)c1c[nH]c2cc(F)c3c(c12)CC(C)O3 (stereo not drawn) [Compound 20]", 30.2],
  ["CC1Cc2c(c(F)cc3[nH]cc(CCNC(=O)C(C)F)c23)O1 (stereo not drawn) [Compound 32]", 38.6],
  ["CC1Cc2c(c(F)cc3[nH]cc(C(C)CNC(=O)C(C)C)c23)O1 (stereo not drawn) [Compound 34]", 18.4],
  ["CC(C)CC(=O)NCCc1c[nH]c2cc(F)c3c(c12)CC(C)O3 (stereo not drawn) [Compound 31]", 22.3],
  ["CCCCC(=O)NCCc1c[nH]c2cc(F)c3c(c12)CC(C)O3 (stereo not drawn) [Compound 25]", 31.9],
  ["CC1Cc2c(c(F)cc3[nH]cc(C(C)CNC(=O)C(C)F)c23)O1 (stereo not drawn) [Compound 43]", 30.6],
  ["CCCC(=O)NCCc1c[nH]c2cc(F)c3c(c12)CC(C)O3 (stereo not drawn) [Compound 24]", 42.1],
  ["CC1Cc2c(c(F)cc3[nH]cc(CCNC(=O)C(F)(F)F)c23)O1 (stereo not drawn) [Compound 28]", 36.1],
  ["COC(=O)NCC(C)c1c[nH]c2cc(F)c3c(c12)CC(C)O3 (stereo not drawn) [Compound 40]", 24],
  ["CC1Cc2c(c(F)cc3[nH]cc(C(C)CNC(=O)C4CC4)c23)O1 (stereo not drawn) [Compound 35]", 30.5],
  ["CC(C)C(=O)NCCc1c[nH]c2cc(F)c3c(c12)CCO3 [Compound 16]", 23],
  ["CC(=O)NCCc1c[nH]c2cc(F)c3c(c12)CC(C)O3 (stereo not drawn) [Compound 22]", 50.5],
  ["COC(=O)NCCc1c[nH]c2cc(F)c3c(c12)CC(C)O3 (stereo not drawn) [Compound 29]", 17.4],
  ["O=C(NCCc1c[nH]c2cc(F)c3c(c12)CCO3)C(F)(F)F [Compound 18]", 59.8]
]}
